Please respond with reported normalized growth for every item in the list.
experiment: chemical genetic growth profiling, strain panel (AID 1159580);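 also: tested at 20 µM; growth read once vehicle control cultures reached saturation at 30 °C; 1 = growth at the plate median or of vehicle wells; lower values mean less growth of the strain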; conditions: S. cerevisiae deletion strains, growth OD, locus YLR058C, strain SHM2 (second series), hits give low values
The campaign covered roughly 5,500 compounds. About 2,000 (36%) were called active. Inconclusive results (about 18%) are left out. Some of the results follow.
Give the figure only, with no unit attached.

normalized growth reading for "C#CCOc1c(Cl)cccc1Cl" : 1.01

normalized growth reading for "NC(=O)c1ccccc1N1CCCCC1" : 1.02

normalized growth reading for "O=C(NCCSCc1ccco1)c1ccc(Cl)cc1" : 0.96

normalized growth reading for "CCSc1nnc(N)s1" : 1.01

normalized growth reading for "NC(=NS(=O)(=O)c1cc(C(F)(F)F)cc(C(F)(F)F)c1)c1cccs1" : 0.967

normalized growth reading for "O=C(NCCSCc1ccco1)Nc1cc(Cl)cc(Cl)c1" : 0.953

normalized growth reading for "O=C(NCCSCc1ccc(Cl)cc1)c1ccc(Cl)cc1" : 0.972

normalized growth reading for "COC(=O)c1ccc(-c2ccc(Cl)cc2)s1" : 0.907

normalized growth reading for "Cc1c(-c2ccnc(N)n2)nnn1-c1ccc(Cl)cc1Cl" : 0.989

normalized growth reading for "COC(=O)c1cc([N+](=O)[O-])ccc1NC(C)=O" : 0.996

normalized growth reading for "O=[N+]([O-])c1ccc2nsnc2c1" : 0.824

normalized growth reading for "CCCCNC(=O)NCCSCc1ccco1" : 0.991

normalized growth reading for "CN1CCN(C=Nc2ncc(C(F)(F)F)cc2Cl)CC1" : 0.996

normalized growth reading for "O=C(N/N=C\C=C\c1ccccc1)c1ccccc1-n1cccc1" : 0.97

---

assay: chemical genetic growth profiling, strain panel (AID 1159580); details: S. cerevisiae deletion strains, growth OD, locus YDL028C, strain MPS1, hits give low values
About 2,000 (36%) of roughly 5,500 compounds were called active. Inconclusive results (about 18%) are left out. Some of the results follow.
MEASURE: normalized growth
Give the figure only, with no unit attached.

normalized growth reading for "FC(F)(F)c1cccc(NC(=S)Nc2ccccc2)c1" : 0.98

normalized growth reading for "CC(C)c1ccc(N2C=Nc3ccc(C(C)C)cc3C2)cc1" : 1.01

normalized growth reading for "O=C(Nc1ccc(N2CCOCC2)cc1)c1ccc(-n2cccn2)cc1" : 0.985

normalized growth reading for CCOC(=O)C1=C(N)OC2=C(C(=O)CC(C)(C)C2)C1c1ccc(Cl)cc1Cl (stereo not given) : 0.98

normalized growth reading for "Cc1ccc(S(=O)(=O)CCSC2=CC(=O)CC(C)(C)S2)cc1" : 1

normalized growth reading for "O=S(=O)(N/N=C\c1ccc(Cl)cc1)c1ccc(-c2ccccn2)s1" : 0.969

normalized growth reading for "Cn1c(CSCCOc2ccccc2)nnc1SCc1ccc(Cl)cc1Cl" : 0.992

normalized growth reading for "O=C(NC(=S)Nc1cccc(C(F)(F)F)c1)c1ccc2nonc2c1" : 0.952

normalized growth reading for "Cc1cc(Br)ccc1-n1c(Sc2c([N+](=O)[O-])cc(C(F)(F)F)cc2[N+](=O)[O-])nc2ccccc2c1=O" : 0.983

normalized growth reading for "CC(C)c1ccc(NC(=S)NC(=O)c2ccccc2)cc1" : 0.953

normalized growth reading for "COC(=O)C1=C(C)NC(C)=C(C(=O)OC)C1c1ccc(Cl)cc1Cl" : 0.977

normalized growth reading for "O=C(NC(=O)c1c(F)cccc1Cl)OCc1ccc(Cl)cc1Cl" : 0.978

normalized growth reading for "CCCc1c(C(=O)NC2Cc3ccccc3C2)cnn1-c1ccccc1" : 0.993

normalized growth reading for "COc1ccc(C(=O)CSC2=NCCc3ccccc32)cc1" : 0.97

normalized growth reading for O=C1CSC(c2cccnc2)N1c1ccc(Cl)cc1Cl (stereo not given) : 0.992

---

test: chemical genetic growth profiling, strain panel (AID 1159580); settings: S. cerevisiae deletion strains, growth OD, locus YJL187C, strain SWE1 (second series), hits give low values
Among all 5,500 compounds or so, about 2,000 (36%) were called active. About 18% were inconclusive and are not listed. The list shows a part of the results.
MEASURE: normalized growth
Give the figure only, with no unit attached.

normalized growth reading for "Nc1ccc(S(=O)(=O)Nc2ccccn2)cc1" : 1.01

normalized growth reading for CC(=O)O[C@@H]1CC2C(C)(C)C(=O)CC[C@]2(C)C2CC[C@]3(C)C(=CC(=O)O[C@H]3c3ccoc3)[C@@]21C (stereo partly drawn) : 1.01

normalized growth reading for "OC[C@@H](O)[C@@H](O[C@@H]1O[C@H](CO)[C@@H](O)[C@H](O)[C@H]1O)[C@H](O)[C@@H](O)CO" : 1.01

---

experiment: chemical genetic growth profiling, strain panel (AID 1159580);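 also: tested at 20 µM; growth read once vehicle control cultures reached saturation at 30 °C; 1 = growth at the plate median or of vehicle wells; lower values mean less growth of the strain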; conditions: S. cerevisiae deletion strains, growth OD, locus YOR231W, strain MKK1, hits give low values
Screen size: about 5,500 compounds; about 2,000 (36%) were called active. Inconclusive results (about 18%) are left out. The list shows a part of the results.
Please respond with reported normalized growth for every item in the list.
Give the figure only, with no unit attached.

normalized growth reading for "CC(=O)Nc1cc([As](=O)(O)O)ccc1O" : 1

normalized growth reading for "Fc1cccc(Cl)c1CSc1nncn1-c1ccc(OCc2ccccc2)cc1" : 1.05

normalized growth reading for C=CC(C)(O)CC/C=C(\C)CCC=C(C)C (configuration not stated) : 0.873

normalized growth reading for "CCCc1c(C(=O)NC2Cc3ccccc3C2)cnn1-c1ccccc1" : 0.934

normalized growth reading for CC(C)=CCC[C@](C)(O)C1CC=C(C)CC1 (some centres not stated) : 0.993

normalized growth reading for "Nc1ccc([As](=O)(O)O)cc1" : 1.01

normalized growth reading for "CCCc1c(C(=O)NNc2cccc(Cl)c2)cnn1-c1ccccc1" : 0.898

normalized growth reading for "CCCc1c(C(=O)Sc2ccccn2)cnn1-c1ccc(Cl)cc1" : 0.897

normalized growth reading for CCCCCCCCCCCCCCCC(=O)OCC(O)[C@H]1OC(=O)C(O)=C1O (some centres not stated) : 0.834

normalized growth reading for "CCN(CC)CCNC(=O)c1cc(S(C)(=O)=O)ccc1OC" : 0.978

normalized growth reading for "CC(=O)Nc1ccc([N+](=O)[O-])cc1[N+](=O)[O-]" : 0.396

normalized growth reading for "COc1c2c(cc3c1OCO3)CCN(C)C2" : 1.04

---

assay: chemical genetic growth profiling, strain panel (AID 1159580);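 also: tested at 20 µM; growth read once vehicle control cultures reached saturation at 30 °C; 1 = growth at the plate median or of vehicle wells; lower values mean less growth of the strain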; conditions: S. cerevisiae deletion strains, growth OD, locus YDR159W, strain sac3, hits give low values
The whole screen tested about 5,500 compounds, of which about 2,000 (36%) were called active. Inconclusive results (about 18%) are left out. This is one part of the list.
MEASURE: normalized growth
Give the figure only, with no unit attached.

normalized growth reading for "Cc1occc(=O)c1O" : 0.971

normalized growth reading for NC(=NCCC[C@H](N)C(=O)O)NC(CCC(=O)O)C(=O)O (some centres not stated) : 1.01

normalized growth reading for "Cc1c(Nc2ncccc2C(=O)O)cccc1C(F)(F)F" : 0.999

normalized growth reading for O=C(O)CCCCC1CCSS1 (configuration not stated) : 0.984

normalized growth reading for NCC(O)c1ccc(O)cc1 (configuration not stated) : 0.963

normalized growth reading for "Nc1ncnc2c1ncn2[C@@H]1O[C@H](CO)[C@@H](O)[C@H]1O" : 0.994

normalized growth reading for C[C@H]1[C@H]2CCC3C4CC=C5C[C@@H](N(C)C)CC[C@]5(C)C4CC[C@@]32CN1C (some centres not stated) : 0.941

normalized growth reading for Nc1ncnc2c1ncn2C1C[C@H](O)[C@@H](CO)O1 (some centres not stated) : 1.03

normalized growth reading for "Nc1ccc(C(=O)NCC(=O)O)cc1" : 0.979

normalized growth reading for Cc1c(O)c(O)cc2c1CC=C1[C@@]2(C)CC[C@@]2(C)C3C[C@](C)(C(=O)O)CC[C@]3(C)CC[C@]12C (some centres not stated) : 0.465

normalized growth reading for CC(C)(C)NCC(O)c1ccccc1Cl (configuration not stated) : 0.939

normalized growth reading for C=CCC1(C(C)CCC)C(=O)N=C(S)NC1=O (configuration not stated) : 0.952

normalized growth reading for "C[C@H](N)[C@H](O)c1ccc(O)c(O)c1" : 1.01

normalized growth reading for "CS(=O)(=O)CCCCN=C=S" : 0.898

normalized growth reading for "CC(=O)NCCCS(=O)(=O)O" : 1.01

normalized growth reading for "COc1cc2c(c(OC)c1OC)-c1ccc(OC)c(=O)cc1[C@@H](NC(C)=O)CC2" : 0.999

normalized growth reading for "C[n+]1cccc(C(=O)[O-])c1" : 0.97

---

experiment: chemical genetic growth profiling, strain panel (AID 1159580);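 also: tested at 20 µM; growth read once vehicle control cultures reached saturation at 30 °C; 1 = growth at the plate median or of vehicle wells; lower values mean less growth of the strain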; conditions: S. cerevisiae deletion strains, growth OD, locus YKR001C, strain vps1, hits give low values
Hit rate of the full screen: of about 5,500 compounds, about 2,000 (36%) were called active. Another 18% or so got no clear call; they are omitted. The list shows a part of the results.
MEASURE: normalized growth
Give the figure only, with no unit attached.

normalized growth reading for CO[C@H]1/C=C/O[C@@]2(C)Oc3c(C)c(O)c4c(O)c(c(/C=N/N5CCN(C)CC5)c(O)c4c3C2=O)NC(=O)/C(C)=C\C=C\C(C)[C@H](O)[C@@H](C)[C@@H](O)[C@@H](C)[C@@H](OC(C)=O)[C@@H]1C (stereo partly drawn) : 1.02

normalized growth reading for C=CC(C)(O)CC/C=C(\C)CCC=C(C)C (stereo not drawn) : 1

normalized growth reading for "OC[C@@H]1CCCN2CCCC[C@H]12" : 1.01

normalized growth reading for "Nc1ccc(S(=O)(=O)Nc2ccc(Cl)nn2)cc1" : 0.995

normalized growth reading for CN(C)CCOC(C)(c1ccccc1)c1ccccn1 (stereo not drawn) : 0.976

normalized growth reading for CC(=O)OCC1(C)CCC2(C)CCC3(C)C4=CCc5c(cc(OC(C)=O)c(OC(C)=O)c5C)C4(C)CCC3(C)C2C1 (stereo not drawn) : 0.997

normalized growth reading for "O=C(O)CF" : 0.976

normalized growth reading for CC(=O)O[C@@H]1CC2C(C)(C)C(=O)CC[C@]2(C)C2CC[C@]3(C)C(=CC(=O)O[C@H]3c3ccoc3)[C@@]21C (stereo partly drawn) : 0.974

normalized growth reading for "CC(=O)Nc1ccc(S(=O)(=O)Nc2ccc([N+](=O)[O-])cc2)cc1" : 1.01

normalized growth reading for "COc1cc(OC)c2c(=O)c(-c3ccccc3)c(C)oc2c1OC" : 0.993

normalized growth reading for "C1CNCCN1" : 1

normalized growth reading for "COc1cc(C(=O)NCc2ccc(OCCN(C)C)cc2)cc(OC)c1OC" : 0.983

normalized growth reading for CC1(C)C(=O)C=CC2(C)C3CCC4(C)C(c5ccoc5)CC5OC54C3C(O)CC12 (stereo not drawn) : 0.984

normalized growth reading for "O=C(CCCCCCCCCCCCC1CCCC1)Nc1ccc(S(=O)(=O)c2ccc(NC(=O)CCCCCCCCCCCCC3CCCC3)cc2)cc1" : 0.991

normalized growth reading for "NCCNC(=O)c1ccc(Cl)cc1" : 0.993

normalized growth reading for "N[C@@H](Cc1ccc(O)c(O)c1)C(=O)O" : 1

normalized growth reading for "CN/C(=C\[N+](=O)[O-])NCCSCc1ccc(CN(C)C)o1" : 0.993

normalized growth reading for CC1(C)C(O)CC(O)C2(C)C1CC(=O)C1(C)C2CCC2(C)C(C(=O)O)OC(=O)C3OC321 (stereo not drawn) : 0.99
